Reference source: the supplement of paper PMC10567573

Measured protein stability index, listed per entry.
B1: SPDEF (parent)
chain: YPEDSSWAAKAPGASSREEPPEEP

Variants of: B1
Assay Info: protein stability index of a GFP-peptide fusion (GPS, HEK-293T) (PSI 1-6); higher = more stable;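 also: lentivirally expressed fusions sorted by FACS into six bins by GFP to DsRed ratio, PSI derived from sequencing read proportions per bin multiplied by bin number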
Test Conditions: c terminus: a fixed tail appended
Output: the number by itself.

Record excerpt, results attached:
protein stability index for S15N is 3.9

protein stability index for E18M is 3.77

protein stability index for A11E is 3.99

protein stability index for Y1D is 5.97

protein stability index for W7E is 5.88

More entries:
protein stability index for P2T is 2.95

protein stability index for P2R is 5.43

protein stability index for W7P is 5.38

protein stability index for S15P is 4.36

protein stability index for W7H is 5.95

protein stability index for S5M is 4.58
